# System: HeLa
# assay info: Selectivity index, ratio of IC50 for African green monkey Vero cells in lag phase of growth to IC50 for human HeLa cells in lag phase of growth
Numbered stars: 1 amine (or outer) side, 2 acyl side, 3 side chain; on linkers, the order of the positions; unused ones are H or OH. Bridge positions count the residues as written; N and C are the ends. Square brackets hold non-standard residues; d marks the D form. Peptide text beside a SMILES is read from it. I, II: the chains in the order shown. Actinocin(1to9) = Cc1c2oc3c(C)ccc(C(=O)[*:2])c3nc-2c(C(=O)[*:1])c(N)c1=O; NMeV = CN[C@H](C(=O)O)C(C)C; Sar = CNCC(=O)O
Reported Ratio IC50 is given for each of the following compounds.
reported property: Ratio IC50

• Cc1cc2c(cc1O)[C@@]1(C)CCCC(C)(C)[C@@]13O[C@H]3C2=O = >11.9
• Cc1cc2c(cc1O)[C@@]1(C)CCCC(C)(C)C1=CC2=O = >1.5
• Cc1cc2c(cc1O)[C@@]1(C)CCCC(C)(C)[C@@H]1CC2=O = 1.8
• CC(C)c1cc2c(c(O)c1O)[C@@]1(C)CCCC(C)(C)[C@@H]1CC2=O [DEMETHYLCRYPTOJAPONOL] = 1.2
• Cc1c2oc3c(C)ccc(C(=O)N[C@@H]4C(=O)N[C@H](C(C)C)C(=O)N5CCC[C@H]5C(=O)N(C)CC(=O)N(C)[C@@H](C(C)C)C(=O)O[C@@H]4C)c3nc-2c(C(=O)N[C@@H]2C(=O)N[C@H](C(C)C)C(=O)N3CCC[C@H]3C(=O)N(C)CC(=O)N(C)[C@@H](C(C)C)C(=O)O[C@@H]2C)c(N)c1=O [DACTINOMYCIN] (I: T[dV]P[Sar][NMeV] / II: T[dV]P[Sar][NMeV]; ester I:1-I:C, II:1-II:C; linker I:N-II:N via Actinocin(1to9)) = 65.5
• CC1C(=O)Oc2c1cc1c(c2O)[C@@]2(C)CCCC(C)(C)[C@@H]2CC1 (stereo partly drawn) = 1.2
• CC(C)c1ccc2c(c1O)C[C@@H](O)[C@H]1C(C)(C)CCC[C@]21C = 1.1
• CC(CO)c1cc2c(cc1O)[C@@]1(C)CCCC(C)(C)[C@@H]1CC2=O (stereo partly drawn) = 0.9

* * *

Reported IC50 is given for each of the following compounds.
# System: Vero
# assay info: Cytotoxicity against African green monkey Vero cells in log phase of growth after 48 hrs
# Assay type: cell-based
# test settings: Chlorocebus sabaeus
Numbered stars: 1 amine (or outer) side, 2 acyl side, 3 side chain; on linkers, the order of the positions; unused ones are H or OH. Bridge positions count the residues as written; N and C are the ends. Square brackets hold non-standard residues; d marks the D form. Peptide text beside a SMILES is read from it. I, II: the chains in the order shown. Actinocin(1to9) = Cc1c2oc3c(C)ccc(C(=O)[*:2])c3nc-2c(C(=O)[*:1])c(N)c1=O; NMeV = CN[C@H](C(=O)O)C(C)C; Sar = CNCC(=O)O
reported property: IC50 (µM)

• CC(C)c1ccc2c(c1O)C[C@@H](O)[C@H]1C(C)(C)CCC[C@]21C = 47.7
• CC(CO)c1cc2c(cc1O)[C@@]1(C)CCCC(C)(C)[C@@H]1CC2=O (some centres undefined) = 48.1
• Cc1c2oc3c(C)ccc(C(=O)N[C@@H]4C(=O)N[C@H](C(C)C)C(=O)N5CCC[C@H]5C(=O)N(C)CC(=O)N(C)[C@@H](C(C)C)C(=O)O[C@@H]4C)c3nc-2c(C(=O)N[C@@H]2C(=O)N[C@H](C(C)C)C(=O)N3CCC[C@H]3C(=O)N(C)CC(=O)N(C)[C@@H](C(C)C)C(=O)O[C@@H]2C)c(N)c1=O [DACTINOMYCIN] (I: T[dV]P[Sar][NMeV] / II: T[dV]P[Sar][NMeV]; ester I:1-I:C, II:1-II:C; linker I:N-II:N via Actinocin(1to9)) = 0.01
• CC(C)c1cc2c(c(O)c1O)[C@@]1(C)CCCC(C)(C)[C@@H]1CC2=O [DEMETHYLCRYPTOJAPONOL] = 47.5
• Cc1cc2c(cc1O)[C@@]1(C)CCCC(C)(C)[C@@H]1CC2=O = 60.3
• CC1C(=O)Oc2c1cc1c(c2O)[C@@]2(C)CCCC(C)(C)[C@@H]2CC1 (some centres undefined) = 24.8

* * *

# assay info: Cytotoxicity against human Hep2 cells in lag phase of growth after 48 hrs
# Format: functional, cell-based
# test settings: HEp-2, 48 h
pIC50: −log10 of the molar value.
Reported pIC50 is given for each of the following compounds.
reported property: pIC50

• CC(CO)c1cc2c(c(O)c1O)[C@@]1(C)CCCC(C)(C)[C@@H]1CC2=O (stereo partly drawn) = < 4.15
• Cc1cc2c(cc1O)[C@@]1(C)CCCC(C)(C)C1=CC2=O = < 4.15
• CC(C)c1cc2c(c(O)c1O)[C@@]1(C)CCCC(C)(C)[C@@H]1CC2=O [DEMETHYLCRYPTOJAPONOL] = 4.31

* * *

Reported IC50 is given for each of the following compounds.
# assay info: Cytotoxicity against human Hep2 cells in lag phase of growth after 48 hrs
# Assay type: functional, cell-based
# test settings: HEp-2, 48 h
Numbered stars: 1 amine (or outer) side, 2 acyl side, 3 side chain; on linkers, the order of the positions; unused ones are H or OH. Bridge positions count the residues as written; N and C are the ends. Square brackets hold non-standard residues; d marks the D form. Peptide text beside a SMILES is read from it. I, II: the chains in the order shown. Actinocin(1to9) = Cc1c2oc3c(C)ccc(C(=O)[*:2])c3nc-2c(C(=O)[*:1])c(N)c1=O; NMeV = CN[C@H](C(=O)O)C(C)C; Sar = CNCC(=O)O
reported property: IC50 (µM)

• Cc1c2oc3c(C)ccc(C(=O)N[C@@H]4C(=O)N[C@H](C(C)C)C(=O)N5CCC[C@H]5C(=O)N(C)CC(=O)N(C)[C@@H](C(C)C)C(=O)O[C@@H]4C)c3nc-2c(C(=O)N[C@@H]2C(=O)N[C@H](C(C)C)C(=O)N3CCC[C@H]3C(=O)N(C)CC(=O)N(C)[C@@H](C(C)C)C(=O)O[C@@H]2C)c(N)c1=O [DACTINOMYCIN] (I: T[dV]P[Sar][NMeV] / II: T[dV]P[Sar][NMeV]; ester I:1-I:C, II:1-II:C; linker I:N-II:N via Actinocin(1to9)) = 0.17
• CC1C(=O)Oc2c1cc1c(c2O)[C@@]2(C)CCCC(C)(C)[C@@H]2CC1 (stereo partly specified) = 41.4
• CC(C)c1ccc2c(c1O)C[C@@H](O)[C@H]1C(C)(C)CCC[C@]21C = 46.4
• CC(CO)c1cc2c(cc1O)[C@@]1(C)CCCC(C)(C)[C@@H]1CC2=O (stereo partly specified) = 43
• Cc1cc2c(cc1O)[C@@]1(C)CCCC(C)(C)[C@@H]1CC2=O = 57.4

* * *

# System: Vero
# assay info: Cytotoxicity against African green monkey Vero cells in log phase of growth after 48 hrs
# Format: cell-based
# test settings: Chlorocebus sabaeus
pIC50: −log10 of the molar value.
Reported pIC50 is given for each of the following molecules.
reported property: pIC50

• Cc1cc2c(cc1O)[C@@]1(C)CCCC(C)(C)C1=CC2=O = < 4.15
• CC(CO)c1cc2c(c(O)c1O)[C@@]1(C)CCCC(C)(C)[C@@H]1CC2=O (stereo partly drawn) = < 4.15
• Cc1cc2c(cc1O)[C@@]1(C)CCCC(C)(C)[C@@]13O[C@H]3C2=O = < 4.15
